Kindly supply the reported pest or weed control at 1000 g/ha values for the records listed here.
System: Solanum nigrum (SOLNI)
protocol.notes: Post-emergence biological efficacy (percentage damage)
Format: in vivo
run.parameters: Solanum nigrum, 312 h, dose 1,000 g/ha, evaluated after 13 days, 100=total damage, 0=no damage
One number for each entry, in %.

The following compounds have reported results that may help.
{"columns": ["molecule.smiles", "quantity.unit", "assay.value"],
 "data": [
  ["C=C(OCC)c1ccc(-c2nc(N)c(C(C)=O)c(C(=O)OC)n2)c(F)c1OC", "%", 60],
  ["COC(=O)c1nc(-c2ccc(Cl)c(N(C)C)c2F)nc(N)c1C(C)=O", "%", 50]
]}

Attention now turns to another entry.
**Q:** Look at this compound and give its reported pest or weed control at 1000 g/ha. "Cc1c(Cl)nc(C2CC2)nc1OCC(=O)O"
**A:** 10

----------
Kindly supply the reported pest or weed control at 1000 g/ha values for the records listed here.
System: Amaranthus retoflexus (AMARE)
protocol.notes: Pre-emergence biological efficacy (percentage damage)
Assay type: in vivo
run.parameters: Amaranthus retroflexus, 312 h, dose 1,000 g/ha, evaluated after 13 days, 100=total damage, 0=no damage
Protocol: Seeds of Alopecurus myosuroides (ALOMY), Setaria faberi (SETFA), Echinochloa crus-galli (ECHCG), Solanum nigrum (SOLNI), Amaranthus retoflexus (AMARE) and Ipomea hederaceae (IPOHE) were sown in standard soil in pots. […] After 13 days the test was evaluated (100=total damage to plant; 0=no damage to plant).
Give bare numbers, in %.

The following compounds have reported results that may help.
{"columns": ["compound", "target.or.system", "pest or weed control at 1000 g/ha, %"],
 "data": [
  ["C=C(C)c1c(N)nc(-c2ccc(Cl)c(OC)c2F)nc1C(=O)OC", "Amaranthus retoflexus (AMARE)", 100],
  ["COC(=O)c1nc(-c2ccc(Cl)cc2)nc(N)c1C", "Amaranthus retoflexus (AMARE)", 100],
  ["C=Cc1c(N)nc(-c2ccc(Br)cc2)nc1C(=O)OC", "Amaranthus retoflexus (AMARE)", 100],
  ["CCc1c(N)nc(-c2ccc(C(F)(F)F)cc2)nc1C(=O)OC", "Amaranthus retoflexus (AMARE)", 0]
]}

Can you give me pest or weed control at 1000 g/ha for all of these, one by one?
1. C=Cc1c(N)nc(-c2ccc3c(c2)OCO3)nc1C(=O)OC
2. C=Cc1c(N)nc(-c2ccc(Cl)c(OC)c2F)nc1C(=O)O
3. C=C(OCC)c1c(N)nc(-c2ccc(Cl)c(N(C)C)c2F)nc1C(=O)OC
4. C=C(OCC)c1c(N)nc(-c2ccc(C(F)(F)F)cc2)nc1C(=O)OC
5. C=Cc1c(C(=O)OC)nc(C2CC2)nc1S(C)(=O)=O

**A:**
[100, 100, 0, 0, 0]

----------
System: Setaria faberi (SETFA)
protocol.notes: Post-emergence biological efficacy (percentage damage)
Assay type: in vivo
run.parameters: Setaria faberi, 312 h, dose 1,000 g/ha, evaluated after 13 days, 100=total damage, 0=no damage
// label = 1 if pest or weed control at 1000 g/ha is not less than 40%, otherwise -1

{"columns": ["molecule", "label.value"],
 "data": [
  ["C=Cc1c(N)nc(-c2ccc(Cl)c(Cl)c2)nc1C(=O)OC", -1],
  ["C=Cc1c(N)nc(-c2ccc(F)c(Cl)c2)nc1C(=O)OC", 1],
  ["COC(=O)c1nc(C2CC2)nc(N)c1C=C(C)C", -1],
  ["COC(=O)c1nc(-c2ccc(Cl)cc2)nc(N)c1C", -1],
  ["C=Cc1c(N)nc(-c2ccc(OC(F)(F)F)cc2)nc1C(=O)OC", -1],
  ["C=Cc1c(N)nc(-c2ccc(Cl)c(N(C)C)c2F)nc1C(=O)OC(C)C", 1]
]}

**Q:** State whether the measured pest or weed control at 1000 g/ha reaches 40%, counting equality as reaching it, for C=Cc1c(N)nc(-c2ccc(Cl)c(N(C)C)c2F)nc1C(=O)OCC(CC)CCCC (centres unmarked)
**A:** -1

**Q:** State whether the measured pest or weed control at 1000 g/ha reaches 40%, counting equality as reaching it, for "C=Cc1c(N)nc(-c2ccc(Cl)c(OC)c2)nc1C(=O)OC"
**A:** -1

**Q:** State whether the measured pest or weed control at 1000 g/ha reaches 40%, counting equality as reaching it, for "C=Cc1c(N)nc(-c2ccc(F)cc2)nc1C(=O)OC"
**A:** -1

**Q:** State whether the measured pest or weed control at 1000 g/ha reaches 40%, counting equality as reaching it, for "C=C(C)c1c(N)nc(-c2ccc(Cl)c(OC)c2F)nc1C(=O)OC"
**A:** 1

**Q:** State whether the measured pest or weed control at 1000 g/ha reaches 40%, counting equality as reaching it, for "C=Cc1c(N)nc(-c2ccc(F)c(C(F)(F)F)c2)nc1C(=O)OC"
**A:** -1

**Q:** State whether the measured pest or weed control at 1000 g/ha reaches 40%, counting equality as reaching it, for "COC(=O)c1nc(-c2ccc(C(F)(F)F)cc2)nc(N)c1C(C)=O"
**A:** 1

**Q:** State whether the measured pest or weed control at 1000 g/ha reaches 40%, counting equality as reaching it, for "COC(=O)COc1nc(C2CC2)nc(Cl)c1C"
**A:** -1

**Q:** State whether the measured pest or weed control at 1000 g/ha reaches 40%, counting equality as reaching it, for "COC(=O)COc1nc(C2CC2)nc(N)c1C"
**A:** 1

**Q:** State whether the measured pest or weed control at 1000 g/ha reaches 40%, counting equality as reaching it, for "C=C(OCC)c1ccc(-c2nc(N)c(C(C)=O)c(C(=O)OC)n2)c(F)c1OC"
**A:** -1

----------
Test system: Amaranthus retoflexus (AMARE)
protocol.notes: Pre-emergence biological efficacy (percentage damage)
Assay type: in vivo
run.parameters: Amaranthus retroflexus, 312 h, dose 1,000 g/ha, evaluated after 13 days, 100=total damage, 0=no damage
quantity: pest or weed control at 1000 g/ha (%)
Numbers only, in %.

{"columns": ["molecule", "quantity", "quantity.unit", "assay.value"],
 "data": [
  ["C=C(OCC)c1c(N)nc(-c2ccc(Cl)c(OC)c2F)nc1C(=O)OC", "pest or weed control at 1000 g/ha", "%", 30]
]}

Can you give me pest or weed control at 1000 g/ha for all of these, one by one?
1. C=Cc1c(N)nc(-c2ccc(F)c(OC)c2)nc1C(=O)OC
2. COC(=O)c1nc(C2CC2)nc(N)c1C=C(C)C
3. COC(=O)COc1nc(C2CC2)nc(N)c1C
4. C=Cc1c(N)nc(-c2ccc(F)c(Cl)c2)nc1C(=O)OC
5. C=Cc1c(OC)nc(C2CC2)nc1C(=O)OC

**A:**
1: 60; 2: 100; 3: 40; 4: 50; 5: 90

Can you give me pest or weed control at 1000 g/ha for all of these, one by one?
1. C=Cc1c(N)nc(-c2ccc(Cl)c(N(C)C)c2F)nc1C(=O)OCCC
2. COC(=O)c1nc(-c2ccc(Cl)c(OC)c2F)nc(N)c1C(C)=O
3. COC(=O)c1nc(-c2ccc(Cl)c(N(C)C)c2F)nc(N)c1C1CC1
4. COC(=O)COc1nc(C2CC2)nc(Cl)c1C
5. COC(=O)c1nc(-c2ccc(Cl)c(N(C)C)c2F)nc(N)c1C

**A:**
[90, 90, 0, 30, 20]

----------
Tested on: Setaria faberi (SETFA)
protocol.notes: Post-emergence biological efficacy (percentage damage)
Assay type: in vivo
run.parameters: Setaria faberi, 312 h, dose 1,000 g/ha, evaluated after 13 days, 100=total damage, 0=no damage
quantity: pest or weed control at 1000 g/ha (%)
Numbers only, in %.

The following compounds have reported results that may help.
{"columns": ["molecule.smiles", "quantity.unit", "pest or weed control at 1000 g/ha"],
 "data": [
  ["COC(=O)c1nc(-c2ccc(Cl)c(OC)c2F)nc(N)c1C=C(C)C", "%", 40],
  ["C=Cc1c(N)nc(-c2ccc(Cl)c(F)c2)nc1C(=O)OC", "%", 40],
  ["C=Cc1c(N)nc(-c2ccc(F)c(OC)c2)nc1C(=O)OC", "%", 40],
  ["C=Cc1c(C(=O)OC)nc(C2CC2)nc1S(C)(=O)=O", "%", 0],
  ["CCc1c(N)nc(-c2ccc(C(F)(F)F)cc2)nc1C(=O)OC", "%", 0],
  ["COC(=O)c1nc(-c2ccc(Cl)c(OC)c2F)nc(N)c1C1CC1", "%", 40]
]}

Can you give me pest or weed control at 1000 g/ha for all of these, one by one?
1. C=CCOC(=O)c1nc(-c2ccc(Cl)c(N(C)C)c2F)nc(N)c1C=C
2. C=Cc1c(N)nc(-c2ccc3ccccc3c2)nc1C(=O)OC

**A:**
100
0

Can you give me pest or weed control at 1000 g/ha for all of these, one by one?
1. C=Cc1c(N)nc(-c2ccc(Cl)c(OC)c2F)nc1C(=O)O
2. C=Cc1ccc(-c2nc(N)c(C=C)c(C(=O)OC)n2)c(F)c1N(C)C
3. COC(=O)c1nc(C2CC2)nc(N)c1C#C[Si](C)(C)C
4. C=Cc1c(N)nc(-c2cc(F)c(F)c(F)c2)nc1C(=O)OC
5. C=C(OCC)c1c(N)nc(-c2ccc(Cl)c(OC)c2F)nc1C(=O)OC
6. COC(=O)c1nc(-c2ccc(Cl)c(OC)c2F)nc(N)c1C

**A:**
[100, 30, 60, 0, 10, 80]
